This section presents binders with their documented relative KD to chimeric parental antibody values.
experimentalTarget: T1, CEACAM1-HIS (Sino Biologics Inc.) (Homo sapiens (Human), UniProt P13688 35-428)
T1 construct: bought; not shown: His tag
T1 sequence: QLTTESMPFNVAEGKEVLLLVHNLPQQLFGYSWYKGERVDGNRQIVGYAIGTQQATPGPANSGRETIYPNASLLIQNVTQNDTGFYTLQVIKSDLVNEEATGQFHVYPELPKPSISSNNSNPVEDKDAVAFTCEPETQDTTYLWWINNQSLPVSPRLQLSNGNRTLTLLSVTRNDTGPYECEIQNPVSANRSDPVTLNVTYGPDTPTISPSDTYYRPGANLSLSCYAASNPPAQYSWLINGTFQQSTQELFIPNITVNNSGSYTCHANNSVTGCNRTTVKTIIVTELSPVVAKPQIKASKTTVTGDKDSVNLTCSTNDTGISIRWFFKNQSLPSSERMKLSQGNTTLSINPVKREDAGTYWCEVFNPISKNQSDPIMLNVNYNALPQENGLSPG
assayRemarks: SPR single-cycle, IgG on Protein A
quantityKind: relative KD to chimeric parental antibody (ratio)

# binder, unitText, val
records = [
    ("VH0/Vκ1 (antibody, V domains shown) VH: EVQLVESGGDLVKPGGSLKLACAASGFIFSSHGMSWVRQTPDKRLEWVATISSGGTYTYYPDSVKGRFTISRDNDKNTLYLQMNSLKSEDTAMYYCARHDFDYDAAWFAYWGQGTLVTVSS VL: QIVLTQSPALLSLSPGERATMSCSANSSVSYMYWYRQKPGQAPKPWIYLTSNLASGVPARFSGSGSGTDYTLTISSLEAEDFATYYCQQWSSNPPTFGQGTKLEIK", "ratio", 1.3),
    ("VH2/Vκ1 (antibody, V domains shown) VH: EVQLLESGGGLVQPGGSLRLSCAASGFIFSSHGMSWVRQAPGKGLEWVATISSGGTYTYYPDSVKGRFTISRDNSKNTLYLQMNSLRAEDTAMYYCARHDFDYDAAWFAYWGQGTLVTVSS VL: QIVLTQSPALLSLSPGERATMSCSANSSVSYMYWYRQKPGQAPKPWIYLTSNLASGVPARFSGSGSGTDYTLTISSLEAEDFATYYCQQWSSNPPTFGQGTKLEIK", "ratio", 4.2),
    ("VH4/Vκ2 (antibody, V domains shown) VH: EVQLLESGGGLVQPGGSLRLSCAASGFIFSSHGMSWVRQAPGKGLEWVSTISSGGTYTYYADSVKGRFTISRDNSKNTLYLQMNSLRAEDTAVYYCARHDFDYDAAWFAYWGQGTLVTVSS VL: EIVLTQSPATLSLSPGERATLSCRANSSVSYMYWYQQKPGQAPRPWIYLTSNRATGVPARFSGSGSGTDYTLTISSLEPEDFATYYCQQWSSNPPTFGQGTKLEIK", "ratio", 91.4),
    ("VH1/Vκ1 (antibody, V domains shown) VH: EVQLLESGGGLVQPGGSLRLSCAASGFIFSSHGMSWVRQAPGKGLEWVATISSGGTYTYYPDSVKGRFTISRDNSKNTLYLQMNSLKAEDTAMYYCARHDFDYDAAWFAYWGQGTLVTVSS VL: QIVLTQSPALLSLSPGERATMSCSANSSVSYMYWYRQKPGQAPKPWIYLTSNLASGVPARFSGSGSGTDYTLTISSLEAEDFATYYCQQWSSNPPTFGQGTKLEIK", "ratio", 2.2),
]
